# Lookup of reported koff keyed by entry
biological target: Human CD33 ECD-HSA (human); test: ProteOn SPR, mAb captured by anti-human Fc, 1:1 Langmuir fit
Sequence (chain, as listed by the source): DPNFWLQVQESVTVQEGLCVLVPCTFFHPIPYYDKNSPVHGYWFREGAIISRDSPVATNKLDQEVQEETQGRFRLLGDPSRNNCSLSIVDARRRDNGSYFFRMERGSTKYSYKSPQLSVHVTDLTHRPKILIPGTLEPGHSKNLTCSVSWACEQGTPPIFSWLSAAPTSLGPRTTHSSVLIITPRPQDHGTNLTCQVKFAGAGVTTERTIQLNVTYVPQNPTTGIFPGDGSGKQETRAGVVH
experimental.readout: koff (s⁻¹)

INSERT INTO assay_data (binder, result_value) VALUES
  ('C33B101 (antibody, V domains shown, huIgG1 F405L; 260 is used; also called C33F106; C33H69/C4LL152) VH: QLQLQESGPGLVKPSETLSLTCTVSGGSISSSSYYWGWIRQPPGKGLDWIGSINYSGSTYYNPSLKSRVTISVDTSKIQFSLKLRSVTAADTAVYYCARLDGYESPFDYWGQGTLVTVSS VL: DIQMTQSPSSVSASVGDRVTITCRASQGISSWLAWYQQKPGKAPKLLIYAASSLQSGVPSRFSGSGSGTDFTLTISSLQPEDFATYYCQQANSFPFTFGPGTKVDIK', 0.00108),
  ('C33B122 (antibody, IgG1, V domains shown, huIgG1 F405L; also called C33F127; C33H92/C33L30) VH: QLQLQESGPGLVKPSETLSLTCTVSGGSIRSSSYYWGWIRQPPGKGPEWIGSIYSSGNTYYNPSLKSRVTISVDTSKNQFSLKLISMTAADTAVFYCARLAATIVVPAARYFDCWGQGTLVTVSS VL: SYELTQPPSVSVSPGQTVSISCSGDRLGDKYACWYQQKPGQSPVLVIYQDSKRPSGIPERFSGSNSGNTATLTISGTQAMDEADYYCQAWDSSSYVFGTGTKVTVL', 0.00712);
